Kindly state IC50 for each of the entries shown.
Biological target: recombinant human ACC1 (rhACC1) (Homo sapiens (Human), UniProt Q13085)
Experiment: recombinant hACC1 Transcreener ADP detection FP assay
Details: 50 μM ATP, 120 min at 25° C.
Numbers only, in nM.

# count of solved cases: 5
Compound: COc1ccc(C)c2[nH]c(C(=O)N3CCC4(CC3)Cc3cn(C(C)(C)C)nc3C(=O)N4)cc12
IC50 [nM]: 7.4

Compound: Cc1n[nH]c2c(C)cc(C(=O)N3C4CCC3CC3(Cc5cn(C(C)(C)C)nc5C(=O)N3)C4)cc12 (stereo not shown)
IC50 [nM]: 4820

Compound: Cc1n[nH]c2ccc(C(=O)N3CCC4(CC3)Cc3cnn(C(C)C)c3C(=O)N4)cc12
IC50 [nM]: 118

Compound: CC(C)(C)n1cc2c(n1)C(=O)NC1(CCN(C(=O)c3ccc4nc(N)ccc4c3)CC1)C2
IC50 [nM]: 149

Compound: CC(C)(C)n1cc2c(n1)C(=O)NC1(CCN(C(=O)c3ccc4ccnc(NC5CCC5)c4c3)CC1)C2
IC50 [nM]: 17

Give IC50 for each listed item.
1. CNc1cc2ccc(C(=O)N3CCC4(CC3)Cc3cn(C(C)(C)C)nc3C(=O)N4)cc2cn1
2. CNc1cc2ccc(C(=O)N3CCC4(CC3)Cc3cnn(C(C)C)c3C(=O)N4)cc2cn1
3. Cc1cc(C(=O)N2CCC3(CC2)Cc2cnn(C(C)C)c2C(=O)N3)cc2c[nH]nc12
4. CCCNc1nccc2ccc(C(=O)N3CCC4(CC3)Cc3cn(C(C)(C)C)nc3C(=O)N4)cc12

[105, 364, 43, 24]

Value lookup for IC50; key = "CC(C)(C)n1cc2c(n1)C(=O)NC1(CCN(C(=O)c3ccc4ccc(NC5COC5)nc4c3)CC1)C2" 507

----------
Molecular target: recombinant human ACC2 (rhACC2) (Homo sapiens (Human))
Sequence (O00763 whole entry V2141I): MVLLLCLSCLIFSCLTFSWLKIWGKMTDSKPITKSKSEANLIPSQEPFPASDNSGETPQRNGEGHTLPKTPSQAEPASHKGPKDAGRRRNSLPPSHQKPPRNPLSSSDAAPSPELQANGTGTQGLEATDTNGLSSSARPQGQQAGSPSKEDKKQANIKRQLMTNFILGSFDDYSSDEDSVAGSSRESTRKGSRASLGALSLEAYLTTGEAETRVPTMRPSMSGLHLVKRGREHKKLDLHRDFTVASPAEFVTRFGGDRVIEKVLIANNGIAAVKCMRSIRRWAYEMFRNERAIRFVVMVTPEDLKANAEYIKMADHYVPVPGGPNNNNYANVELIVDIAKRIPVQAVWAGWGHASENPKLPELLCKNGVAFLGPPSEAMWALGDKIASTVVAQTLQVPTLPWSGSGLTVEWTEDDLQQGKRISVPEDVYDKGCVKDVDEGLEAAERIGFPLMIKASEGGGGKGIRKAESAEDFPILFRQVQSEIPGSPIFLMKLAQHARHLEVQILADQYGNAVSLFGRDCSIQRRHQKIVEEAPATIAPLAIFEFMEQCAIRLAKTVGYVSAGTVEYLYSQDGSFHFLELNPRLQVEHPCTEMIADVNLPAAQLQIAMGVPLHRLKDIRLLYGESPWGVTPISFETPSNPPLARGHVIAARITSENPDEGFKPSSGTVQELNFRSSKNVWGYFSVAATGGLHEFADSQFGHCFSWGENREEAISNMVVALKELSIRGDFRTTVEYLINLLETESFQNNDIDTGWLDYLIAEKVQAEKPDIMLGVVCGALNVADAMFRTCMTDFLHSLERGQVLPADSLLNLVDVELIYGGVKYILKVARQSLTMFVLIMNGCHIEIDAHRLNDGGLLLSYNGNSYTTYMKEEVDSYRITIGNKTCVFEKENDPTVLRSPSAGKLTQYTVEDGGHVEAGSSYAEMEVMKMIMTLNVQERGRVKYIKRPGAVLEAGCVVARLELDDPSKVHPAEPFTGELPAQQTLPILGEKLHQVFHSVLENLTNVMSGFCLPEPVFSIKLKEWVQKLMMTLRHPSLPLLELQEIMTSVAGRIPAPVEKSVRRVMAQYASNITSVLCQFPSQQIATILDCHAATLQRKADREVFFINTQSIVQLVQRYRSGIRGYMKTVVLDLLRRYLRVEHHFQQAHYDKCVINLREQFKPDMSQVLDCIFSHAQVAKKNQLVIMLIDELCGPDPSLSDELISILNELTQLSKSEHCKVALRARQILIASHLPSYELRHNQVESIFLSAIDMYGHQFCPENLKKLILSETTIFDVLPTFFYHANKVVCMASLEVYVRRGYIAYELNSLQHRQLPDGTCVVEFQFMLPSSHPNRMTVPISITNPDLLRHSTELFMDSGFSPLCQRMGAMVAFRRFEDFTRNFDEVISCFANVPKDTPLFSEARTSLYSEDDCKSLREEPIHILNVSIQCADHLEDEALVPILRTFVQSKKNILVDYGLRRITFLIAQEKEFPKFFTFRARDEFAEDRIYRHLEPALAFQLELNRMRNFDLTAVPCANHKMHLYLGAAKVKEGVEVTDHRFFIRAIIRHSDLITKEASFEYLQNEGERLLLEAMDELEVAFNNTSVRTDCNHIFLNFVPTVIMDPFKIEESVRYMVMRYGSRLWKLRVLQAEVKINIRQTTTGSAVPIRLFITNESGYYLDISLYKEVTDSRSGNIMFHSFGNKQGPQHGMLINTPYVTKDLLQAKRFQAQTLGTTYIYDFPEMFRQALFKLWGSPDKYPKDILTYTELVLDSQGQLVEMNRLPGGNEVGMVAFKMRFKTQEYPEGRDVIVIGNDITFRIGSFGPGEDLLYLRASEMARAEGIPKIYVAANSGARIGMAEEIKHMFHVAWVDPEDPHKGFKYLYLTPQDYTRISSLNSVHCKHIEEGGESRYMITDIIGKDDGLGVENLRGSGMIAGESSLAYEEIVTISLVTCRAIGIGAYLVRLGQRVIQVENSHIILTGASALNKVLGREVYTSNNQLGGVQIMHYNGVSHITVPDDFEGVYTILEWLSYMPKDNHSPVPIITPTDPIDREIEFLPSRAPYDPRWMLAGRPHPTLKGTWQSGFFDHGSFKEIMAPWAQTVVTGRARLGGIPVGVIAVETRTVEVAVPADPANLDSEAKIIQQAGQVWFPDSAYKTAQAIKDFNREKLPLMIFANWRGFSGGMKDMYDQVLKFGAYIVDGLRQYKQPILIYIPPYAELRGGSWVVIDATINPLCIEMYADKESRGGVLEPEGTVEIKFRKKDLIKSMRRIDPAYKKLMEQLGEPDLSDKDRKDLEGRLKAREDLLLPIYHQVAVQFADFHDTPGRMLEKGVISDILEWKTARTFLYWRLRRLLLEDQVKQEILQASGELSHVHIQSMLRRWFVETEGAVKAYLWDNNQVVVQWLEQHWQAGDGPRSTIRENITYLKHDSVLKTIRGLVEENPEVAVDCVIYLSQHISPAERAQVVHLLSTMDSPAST
Assay: recombinant hACC2 Transcreener ADP detection FP assay
Details: 50 uM ATP, 50 min at 25° C.
Endpoint Label: IC50 (nM)
Give bare numbers, in nM.

Guide cases for IC50, answers given:
Query Smiles: CC(C)(C)n1ncc2c1C(=O)NC1(CCN(C(=O)c3ccc4n[nH]cc4c3)CC1)C2
IC50, nM: 305
//
Query Smiles: CC(C)(C)n1cc2c(n1)C(=O)NC1(CCN(C(=O)c3ccc4ccc(NC5COC5)nc4c3)CC1)C2
IC50, nM: 44
//
Query Smiles: CC(C)(C)n1cc2c(n1)C(=O)NC1(CCN(C(=O)c3ccc4nc(N)ccc4c3)CC1)C2
IC50, nM: 12
//
Query Smiles: Cc1cc(C(=O)N2CCC3(CC2)Cc2cn(C(C)C)nc2C(=O)N3)cc2cn[nH]c12
IC50, nM: 29
//
Query Smiles: CC(C)(C)n1cc2c(n1)C(=O)NC1(CCN(C(=O)c3ccc4ncccc4c3)CC1)C2
IC50, nM: 28

Please state, for each entry, its recorded IC50.
1. CNc1nc2cc(C(=O)N3CCC4(CC3)Cc3cn(C(C)(C)C)nc3C(=O)N4)ccc2[nH]1
2. CC(C)(C)n1cc2c(n1)C(=O)NC1(CCN(C(=O)c3ccc4ccc(NCC(F)(F)F)nc4c3)CC1)C2
3. CC(C)(C)n1cc2c(n1)C(=O)NC1(CCN(C(=O)c3cnc4[nH]cc(Cl)c4c3)CC1)C2
4. CC(C)n1ncc2c1C(=O)NC1(CCN(C(=O)c3ccc4nn(C)cc4c3)CC1)C2
5. Cc1cc(C(=O)N2CCC3(CC2)Cc2cn(C(C)(C)C)nc2C(=O)N3)cc2cn[nH]c12

1: 11; 2: 1.72; 3: 7.1; 4: 2280; 5: 10
